- SYSTEM NAME: c-Src SH2;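 note: peptide library displayed on the E. coli surface as eCPX fusions, selected cells deep-sequenced, score is each peptide's frequency after selection divided by its frequency in the input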
- MEASUREMENT PROTOCOL: SH2 binding enrichment of the phosphorylated peptide, bacterial display (enrichment ratio); higher = better substrate or ligand; peptides without Tyr show the background
OBSERVABLE: SH2 binding enrichment

> print(dat)
                               chain              observable  value
 1    GAALAYGLDKS [HSPA9_Y230_A225G]  SH2 binding enrichment  0.488
 2     AEYGLYRAMVR [VSX2_Y222_G223R]  SH2 binding enrichment  0.566
 3       RVKPIYFHTQG [AR_Y916_K911R]  SH2 binding enrichment   1.53
 4     EATKGYPDDPT [G6PD_Y322_L323P]  SH2 binding enrichment  0.485
 5  CTTIHYNFMFN [TP53_Y234_C238F_YF]  SH2 binding enrichment  0.756
 6    HQEPVCSVAFS [TBL1X_Y509_Y509C]  SH2 binding enrichment  0.646
 7      DVMDLYKTLRG [NR3C1_Y30_F29L]  SH2 binding enrichment  0.738
 8  SLKAFYGEDAK [ALDH3A1_Y272_E270A]  SH2 binding enrichment   0.68
 9         GDYLSYREFHS [ERBIN_Y1107]  SH2 binding enrichment  0.407
10   ATVRPYRPYII [LRP5_Y1528_A1525V]  SH2 binding enrichment  0.482
11      GIVEDYRPPFF [ACVRL1_Y421_YF]  SH2 binding enrichment  0.521
12      QRTMKYTTATE [MCCC1_Y41_G46E]  SH2 binding enrichment  0.521
13    NNHGNYIVLLG [ETFDH_Y172_R175L]  SH2 binding enrichment  0.587
14    PKGTGYIKTES [STAT1_Y701_L706S]  SH2 binding enrichment  0.425
15     CTTIHYNYMCT [TP53_Y234_N239T]  SH2 binding enrichment   4.38
16     VDSLRYIYPKL [EIF2B3_Y92_A87V]  SH2 binding enrichment   10.7
17           PLAVPYLDKPP [JMJD7_Y31]  SH2 binding enrichment  0.398
18     KRAIGYFSATS [FAM120A_Y327_YF]  SH2 binding enrichment  0.553
19   SLLLSYYLIKW [NUP160_Y773_P768S]  SH2 binding enrichment  0.925
20     INPIIYAFVGG [CCR5_Y297_E302G]  SH2 binding enrichment  0.491
21           SNKLYYQLEQE [PDPR_Y110]  SH2 binding enrichment   2.13
22     QFNIQYSSSAA [ERBB2IP_Y981_YF]  SH2 binding enrichment  0.557
23          ETESPYQELQG [TYROBP_Y91]  SH2 binding enrichment   0.61
24      HESEIYGKVCY [CSRP3_Y57_C58G]  SH2 binding enrichment  0.422
25     KTGDYYDLYGG [PTPN11_Y63_N58K]  SH2 binding enrichment  0.916
26         TYGVVYRAKDK [CDK11B_Y453]  SH2 binding enrichment  0.491
27          DKMEAYNIDET [TEKT4_Y210]  SH2 binding enrichment  0.528
28     YTTIHYNYMCN [TP53_Y234_C229Y]  SH2 binding enrichment   6.95
29       CSRCFYQLTKL [AR_Y858_R856C]  SH2 binding enrichment   1.18
